Exercise: for every item that follows, state its recorded pKd.
# target_under_test: IL16_1, Q14005
# Sequence (Q14005 210-306): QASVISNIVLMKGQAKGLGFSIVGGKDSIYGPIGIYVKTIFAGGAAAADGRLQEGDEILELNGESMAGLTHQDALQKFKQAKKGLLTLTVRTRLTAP
# assay_notes: holdup assay
# Design: key: below the threshold = too weak to quantify, mostly under pKd 3.1 to 4
# particulars: plain residues with an end cap or a label only (N-terminal biotin on a linker: ado-ado)
Could you keep your reply to the number by itself?

[ask] Would you kindly share the measured pKd for SPDRDRESIV [SCN5A, Q14524] ?
[reply] 5.08

[ask] Record request: pKd value, item VLYPREGTEV [FOXI1, Q12951]
[reply] 4
